# assayed-system: p-tau (Homo sapiens, UniProt P10636)
# Construct: made in house; host or cells: E. coli (PIMAX system)
# Sequence (P10636 1-412 isoform P10636-7): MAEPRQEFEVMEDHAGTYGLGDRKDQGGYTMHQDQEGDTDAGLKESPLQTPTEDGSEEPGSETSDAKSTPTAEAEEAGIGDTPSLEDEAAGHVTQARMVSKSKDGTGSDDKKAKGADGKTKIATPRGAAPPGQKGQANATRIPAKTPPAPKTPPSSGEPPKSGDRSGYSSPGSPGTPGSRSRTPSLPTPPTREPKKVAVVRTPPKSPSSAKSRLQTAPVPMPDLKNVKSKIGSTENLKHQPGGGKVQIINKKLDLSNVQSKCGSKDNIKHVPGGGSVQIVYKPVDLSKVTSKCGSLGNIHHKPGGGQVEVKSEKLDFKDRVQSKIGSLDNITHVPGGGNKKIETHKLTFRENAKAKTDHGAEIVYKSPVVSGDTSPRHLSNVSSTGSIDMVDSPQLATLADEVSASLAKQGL
# procedure-summary: p-tau aggregation assay, dose response (ThS fluorescence, inducer-free)
# Format: biochemical
# experimental-conditions: 6 µM p-tau, 6.25-150 µM benzodiazepine
result-type: effect on p-tau aggregation (16-h net change of ThS fluorescence)

CN1C(=O)CN=C(c2ccccc2)c2cc([N+](=O)[O-])ccc21 [nimetazepam] ... did not
O=C1CN=C(c2ccccc2)c2cc(Cl)ccc2N1 [nordiazepam] ... did not
O=C1CN=C(c2ccccc2)c2cc([N+](=O)[O-])ccc2N1 [nitrazepam] ... did not
O=C1Nc2ccc(Cl)cc2C(c2ccccc2)=NC1O (stereo not drawn) [oxazepam] ... did not

Every entry's value here was drawn from paper PMC7539012.
